SYSTEM: T1, mOrai1-hOrai1 ECL2 (KPPAE) protein (human/mouse chimera, UniProt Q8BWG9 1-304 (mouse entry))
T1 construct: also called Ch
T1 sequence (Q8BWG9 other isoform, or with tags, fused parts or gaps): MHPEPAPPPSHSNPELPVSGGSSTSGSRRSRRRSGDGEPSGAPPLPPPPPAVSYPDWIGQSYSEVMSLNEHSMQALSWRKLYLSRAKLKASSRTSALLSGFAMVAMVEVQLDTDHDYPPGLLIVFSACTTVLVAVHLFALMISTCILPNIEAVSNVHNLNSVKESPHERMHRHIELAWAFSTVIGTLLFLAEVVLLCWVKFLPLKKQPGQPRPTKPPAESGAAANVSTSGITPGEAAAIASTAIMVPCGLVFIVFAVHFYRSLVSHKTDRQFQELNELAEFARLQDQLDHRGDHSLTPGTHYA
EXPERIMENT_DESCRIPTION: FACS, 293EBNA
Design: concentration or dose not given beside the values
REPORTED_ENDPOINT: POC (percent of control, FACS Geo Mean relative to Ch. 1)

Q: Which POC (percent of control, FACS Geo Mean relative to Ch. 1) is listed for mAb 2C1.1 (antibody, human IgG2, lambda, V domains shown, fully human IgG2 lambda, Campaign 1; tested hybridoma-purified and recombinant; also called anti-hOrai1 mAb 2C1.1) VH: QVQLQQWGAGLLKPSETLSLTCAVYGGSFSGYYWSWIRQPPGKGLEWIGEIDHSGSTNYNPALKSRLTISVDTSKNQFSLKLSSVTAADTAVYYCARAGSGGYEDWFDPWGQGTLVTVSS VL: QSVLTQPPSVSGAPGQRVTISCTGSSSNIGAGYNVHWYQQFPRTDPKLLIYVYNIRPSGVPDRFSGSRSGTSASLAITGLQTEDEADYYCQSYDSSLSGVVFGGGTKLTVLG ?
Ans: < 1%

Entry source: patent US20120231006A1
